Reference for the values: patent US11795460B2

Parameter: Avg % Edit. Scope: all listed entries.
tested on: TTR; test: TTR editing in primary human hepatocytes transfected with Spy Cas9 protein and sgRNAs (Table 12); type: cell-based; conditions: primary human hepatocytes transfected with Spy Cas9 protein (RNP) and sgRNAs
Strand notation (5' to 3'): a small letter for the sugar, then the base; units joined by * are phosphorothioate-linked, units joined directly phosphodiester-linked; [ ] holds rarer units or linkages, { } end groups; capitals alone tell only the bases. m = 2'-O-methyl; r = 2'-OH (RNA)
Answer with a number only, understood to be in %.

Here's what some known entries look like.
G000494: TTR sgRNA modified sequence, Human, SEQ ID No. 101; guide sequence of CR003360 (nucleic acid) guide: mG*mU*mG*rArGrUrCrUrGrGrArGrArGrCrUrGrCrArUrGrUrUrUrUrArGrAmGmCmUmAmGmAmAmAmUmAmGmCrArArGrUrUrArArArArUrArArGrGrCrUrArGrUrCrCrGrUrUrArUrCrAmAmCmUmUmGmAmAmAmAmAmGmUmGmGmCmAmCmCmGmAmGmUmCmGmGmUmGmCmU*mU*mU*mU : 62.23
G000484: TTR sgRNA modified sequence, Human, SEQ ID No. 91; guide sequence of CR003367 (nucleic acid) guide: mA*mG*mA*rCrArCrCrArArArUrCrUrUrArCrUrGrGrArGrUrUrUrUrArGrAmGmCmUmAmGmAmAmAmUmAmGmCrArArGrUrUrArArArArUrArArGrGrCrUrArGrUrCrCrGrUrUrArUrCrAmAmCmUmUmGmAmAmAmAmAmGmUmGmGmCmAmCmCmGmAmGmUmCmGmGmUmGmCmU*mU*mU*mU : 62.97
G000492: TTR sgRNA modified sequence, Human, SEQ ID No. 99; guide sequence of CR003342 (nucleic acid) guide: mC*mU*mU*rCrUrCrUrArCrArCrCrCrArGrGrGrCrArCrGrUrUrUrUrArGrAmGmCmUmAmGmAmAmAmUmAmGmCrArArGrUrUrArArArArUrArArGrGrCrUrArGrUrCrCrGrUrUrArUrCrAmAmCmUmUmGmAmAmAmAmAmGmUmGmGmCmAmCmCmGmAmGmUmCmGmGmUmGmCmU*mU*mU*mU : 60.97
G000487: TTR sgRNA modified sequence, Human, SEQ ID No. 94; guide sequence of CR003357 (nucleic acid) guide: mU*mU*mC*rUrUrUrGrGrCrArArCrUrUrArCrCrCrArGrGrUrUrUrUrArGrAmGmCmUmAmGmAmAmAmUmAmGmCrArArGrUrUrArArArArUrArArGrGrCrUrArGrUrCrCrGrUrUrArUrCrAmAmCmUmUmGmAmAmAmAmAmGmUmGmGmCmAmCmCmGmAmGmUmCmGmGmUmGmCmU*mU*mU*mU : 67.30
G000500: TTR sgRNA modified sequence, Human, SEQ ID No. 107; guide sequence of CR003337 (nucleic acid) guide: mC*mC*mA*rGrUrCrCrArGrCrArArGrGrCrArGrArGrGrGrUrUrUrUrArGrAmGmCmUmAmGmAmAmAmUmAmGmCrArArGrUrUrArArArArUrArArGrGrCrUrArGrUrCrCrGrUrUrArUrCrAmAmCmUmUmGmAmAmAmAmAmGmUmGmGmCmAmCmCmGmAmGmUmCmGmGmUmGmCmU*mU*mU*mU : 65.53

Please examine the following record next.
Prompt: Would you mind telling me what Avg % Edit value was observed for G000501: TTR sgRNA modified sequence, Human, SEQ ID No. 108; guide sequence of CR005300 (nucleic acid) guide: mU*mC*mA*rCrArGrArArArCrArCrUrCrArCrCrGrUrArGrUrUrUrUrArGrAmGmCmUmAmGmAmAmAmUmAmGmCrArArGrUrUrArArArArUrArArGrGrCrUrArGrUrCrCrGrUrUrArUrCrAmAmCmUmUmGmAmAmAmAmAmGmUmGmGmCmAmCmCmGmAmGmUmCmGmGmUmGmCmU*mU*mU*mU ?
Response: 60.93
